Entries and their measured pKd follow.
target: T1, HLA-A*0201/β2-microglobulin/NY-ESO peptide complex (human, biotinylated with E. coli biotin ligase at the added recognition sequence (biotinylated form used in the ELISA)); assay: SPR (Biacore T200), scFv captured by anti-His antibody, HLA/NY-ESO as analyte, single cycle kinetics
T1 construct: also called HLA/NY-ESO; HLA-A2/NY-ESO
To interpret pKd, take it as minus log10 of a concentration measured in moles per litre.

Inquiry: Quick one: pKd for NYC-0003 (scFv, not shown: small tags and cut ends, also called 3M4E5 scFv; NYC-0003 tag adduct) scFv: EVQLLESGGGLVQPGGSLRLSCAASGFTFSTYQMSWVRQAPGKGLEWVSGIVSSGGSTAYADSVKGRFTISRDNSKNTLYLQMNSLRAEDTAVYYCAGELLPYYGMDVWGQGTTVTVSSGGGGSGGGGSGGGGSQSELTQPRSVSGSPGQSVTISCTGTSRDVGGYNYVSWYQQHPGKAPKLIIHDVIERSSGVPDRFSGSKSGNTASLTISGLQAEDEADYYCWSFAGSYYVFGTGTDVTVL ?
Reply text: 8.09

Inquiry: Lookup NYC-0004 (scFv, not shown: small tags and cut ends, also called T1 scFv; NYC-0004 tag adduct) scFv: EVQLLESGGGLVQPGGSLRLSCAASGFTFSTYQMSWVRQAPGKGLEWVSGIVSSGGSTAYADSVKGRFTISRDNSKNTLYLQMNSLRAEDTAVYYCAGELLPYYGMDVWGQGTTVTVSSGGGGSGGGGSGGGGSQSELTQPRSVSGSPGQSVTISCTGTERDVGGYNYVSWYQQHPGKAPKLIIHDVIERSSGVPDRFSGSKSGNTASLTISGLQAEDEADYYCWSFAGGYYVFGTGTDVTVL
Reply text: 8.55
